Below: a set of entries, each annotated with reported INHIBITION.
Tested on: Plasmodium berghei
Assay: Screen against P. berghei liver stage (PbLuc), transformed with Luciferase, at 10uM
Type: functional, HepG2
Details: tested at 10 uM
Screen size: about 69,000 compounds; about 8,600 (12%) showed an effect of 50% or more. This excerpt belongs to a sample that is enriched for strong results.
All answers are understood in %, so give the number only.

Take a look at these entries with their results.
Molecule | INHIBITION, %
COC(=O)CNc1ccc(-c2nc(Cc3ccc(OC)cc3)no2)cn1 | 26.6
Cc1n[nH]c(C)c1C1COCCN1C(=O)Cc1cccc(F)c1 (centres undefined) | 16.8
CN(C)CCNc1ccc(-c2nc(COc3ccccc3)no2)cn1 | 56.5
CNC(=O)C1(c2cnccn2)CCCN1C(=O)c1ccc(OC)cc1 (centres undefined) | 20.8
CSc1ccc(C(=O)N2CCOCC2c2c(C)nn(C)c2C)o1 (centres undefined) | 23.4
Cc1ccc(CC(=O)N2CCOCC2c2ncon2)cc1 (centres undefined) | 19.4

Entry O=C(Cn1cc(-c2ccccc2)ncc1=O)Nc1nc(C2CC2)n[nH]1 , Plasmodium berghei data, INHIBITION value: 33.7

Log: Plasmodium berghei, molecule CSc1ccc(C(=O)N2CCOCC2c2c(C)n[nH]c2C)o1 (centres undefined) , INHIBITION = 57.45

Sample CC1CN(C(=O)c2cnn(-c3ccccn3)c2C(C)C)CC(C)(C)O1 (centres undefined) , system: Plasmodium berghei. Its INHIBITION is 51.5

Summary: CCc1nc(CN(C)C2CCN(CCOc3ccccc3)C2)no1 (centres undefined) , Plasmodium berghei, INHIBITION = -0.219

Readout INHIBITION for CC(=O)N1CCCC1c1nc(CN(C)C(=O)C(C)C)cc(N(C)C)n1 (centres undefined) , test system Plasmodium berghei, was 23.9

CC(C)(CO)Nc1ccc(-c2nc(-c3ccccc3F)no2)cn1 on Plasmodium berghei gives INHIBITION = 91.3

Recorded INHIBITION for O=C(c1cnccn1)N1CC[C@H]2C[C@@H](c3ccncn3)O[C@@H]2C1 on Plasmodium berghei was 29.9
